meta.source: patent US20230135894A1

# DC50 listing for each entry below
Molecular target: MK2 (Homo sapiens)
Sequence (P49137 whole entry): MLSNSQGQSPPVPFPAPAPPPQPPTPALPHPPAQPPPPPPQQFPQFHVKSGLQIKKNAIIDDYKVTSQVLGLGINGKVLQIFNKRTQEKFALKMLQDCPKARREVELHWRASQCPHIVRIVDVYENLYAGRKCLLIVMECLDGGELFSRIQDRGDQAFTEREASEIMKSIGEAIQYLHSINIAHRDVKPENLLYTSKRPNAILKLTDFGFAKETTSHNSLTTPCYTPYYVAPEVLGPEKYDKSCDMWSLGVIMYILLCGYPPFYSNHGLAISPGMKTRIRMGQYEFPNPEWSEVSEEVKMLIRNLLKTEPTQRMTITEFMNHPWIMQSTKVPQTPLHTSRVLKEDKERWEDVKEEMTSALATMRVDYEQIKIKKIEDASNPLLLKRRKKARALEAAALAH
Experiment: MK2 degradation in human THP-1 monocytic cells (MSD, 24 h)
Assay type: cell-based
Parameters: endogenous in cells
Settings: THP-1 cells, read-out: MK2 MSD THP-1 degradation 24 h GMean External Abs DC50
Experimental: MK2 Degradation in Human THP-1 Monoctyic Cells […] After 3 more washes, the secondary detection antibody (SULFO-Tag anti rabbit antibody R32AB-5) was added at a final concentration of 1 microgram per ml at 25 microlitres per well and shaken at room temperature for 1 hour at 600 rpm. After 3 more washes, the 1×MSD (diluted from 5× concentrate with water) reading buffer was added at 150 microlitres per well and read on the MSD instrument Meso Sector S 600. […]
Assay readout: DC50

- Compound: "CC(C)c1cc(-c2ccc3c(ccc4sc5c(c43)NC[C@@H](C)NC5=O)n2)cc(N2CCN(CC3CCN(c4ccc5c(c4)n(C)c(=O)n5C4CCC(=O)NC4=O)CC3)CC2)c1 (stereo partly drawn)"
  Result: "1 to 10 nM"
- Compound: "C[C@@H]1CNc2c(sc3ccc4nc(-c5cccc(C#CCCNC(=O)COCCOCCc6ccc7c(c6)n(C)c(=O)n7C6CCC(=O)NC6=O)c5)ccc4c23)C(=O)N1 (stereo partly drawn)"
  Result: "1 to 10 nM"
- Compound: "Cn1c(=O)n(C2CCC(=O)NC2=O)c2cccc(N3CC(N4CCN(c5ccc(-c6cc(-c7cc8c([nH]7)C7(CC7)CNC8=O)ccn6)cc5)CC4)C3)c21 (stereo not drawn)"
  Result: "< 1 nM"
- Compound: "C[C@@H]1CNc2c(sc3ccc4nc(-c5cccc(N6CCN(CCCCCCCc7cccc8c7n(C)c(=O)n8C7CCC(=O)NC7=O)CC6)c5)ccc4c23)C(=O)N1 (stereo partly drawn)"
  Result: "< 1 nM"
- Compound: "C[C@@H]1CNc2c(sc3ccc4nc(-c5ccc(N6CCC(CN7CCC(c8cccc9c8n(C)c(=O)n9C8CCC(=O)NC8=O)CC7)CC6)cc5F)ccc4c23)C(=O)N1 (stereo partly drawn)"
  Result: "< 1 nM"
- Compound: "C[C@@H]1CNc2c(sc3ccc4nc(N5CC6(CCN(CC7CCN(c8ccc9c(c8)n(C)c(=O)n9C8CCC(=O)NC8=O)CC7)CC6)C5)ccc4c23)C(=O)N1 (stereo partly drawn)"
  Result: "> 100 nM"
- Compound: "C[C@@H]1CNc2c(sc3ccc4nc(-c5cccc(N6CCC(CN7CCC(c8cccc9c(N%10CCC(=O)NC%10=O)cncc89)CC7)CC6)c5)ccc4c23)C(=O)N1"
  Result: "1 to 10 nM"
- Compound: "C[C@@H]1CNc2c(sc3ccc4nc(-c5ccc(N6CCN(CC7CCN(c8ccc9c(c8)n(C)c(=O)n9C8CCC(=O)NC8=O)CC7)CC6)cc5F)ccc4c23)C(=O)N1 (stereo partly drawn)"
  Result: "< 1 nM"
- Compound: "C[C@@H]1CNc2c(sc3ccc4nc(-c5ccc(N6CCN(C(=O)COCCOCCOCCOCCc7ccc8c(c7)n(C)c(=O)n8C7CCC(=O)NC7=O)CC6)cc5)ccc4c23)C(=O)N1 (stereo partly drawn)"
  Result: "< 1 nM"
- Compound: "C[C@@H]1CNc2c(sc3ccc4nc(N5CC6CCC(C5)N6CC5CCN(c6ccc7c(c6)n(C)c(=O)n7C6CCC(=O)NC6=O)CC5)ccc4c23)C(=O)N1 (stereo partly drawn)"
  Result: "> 100 nM"
- Compound: "COc1ccc2c(c1CCN1CCN(c3ccc(-c4cc(-c5cc6c([nH]5)C5(CC5)CNC6=O)ccn4)cc3)CC1)n(C)c(=O)n2C1CCC(=O)NC1=O (stereo not drawn)"
  Result: "< 1 nM"
- Compound: "C[C@@H]1CN(C)c2c(sc3ccc4nc(-c5ccc(N6CCN(CC7CN(c8ccc9c(c8)n(C)c(=O)n9C8CCC(=O)NC8=O)C7)CC6)nc5)ccc4c23)C(=O)N1 (stereo partly drawn)"
  Result: "< 1 nM"
- Compound: "C[C@@H]1CNc2c(sc3ccc4nc(-c5cnc(N6CCC(CN7CCN(c8cccc9c8n(C)c(=O)n9C8CCC(=O)NC8=O)CC7)CC6)nc5)ccc4c23)C(=O)N1 (stereo partly drawn)"
  Result: "< 1 nM"
- Compound: "Cn1c(=O)n(C2CCC(=O)NC2=O)c2cccc(CCCCCCCN3CCN(c4ccc(F)c(-c5cc(-c6cc7c([nH]6)CCNC7=O)ccn5)c4)CC3)c21 (stereo not drawn)"
  Result: "> 100 nM"
- Compound: "Cc1nc(N2CCN(CC3CN(c4ccc5c(c4)n(C)c(=O)n5C4CCC(=O)NC4=O)C3)CC2)ccc1-c1ccc2c(ccc3sc4c(c32)NC[C@@H](C)NC4=O)n1 (stereo partly drawn)"
  Result: "< 1 nM"
- Compound: "COc1cccc(-c2cc(N3CCN(CC4CCN(c5ccc6c(c5)n(C)c(=O)n6C5CCC(=O)NC5=O)CC4)CC3)cc(-n3cc(-c4ccc5c(c4)CCNC5=O)c(N)n3)c2)c1 (stereo not drawn)"
  Result: "> 100 nM"
- Compound: "C[C@@H]1CNc2c(sc3ccc4nc(-c5ccc(N6CCN(CC7CCN(c8ccc9c(c8)n(C)c(=O)n9C8CCC(=O)NC8=O)CC7)CC6)nc5)ccc4c23)C(=O)N1 (stereo partly drawn)"
  Result: "< 1 nM"
- Compound: "Cn1c(=O)n(C2CCC(=O)NC2=O)c2ccc(N3CC(CN4CCN(c5ccc(-c6nccc(-c7cc8c([nH]7)C7(CC7)CNC8=O)n6)c(F)c5)CC4)C3)cc21 (stereo not drawn)"
  Result: "< 1 nM"
- Compound: "Cc1cc(N2CCN(CC3CCN(c4ccc5c(c4)n(C)c(=O)n5C4CCC(=O)NC4=O)CC3)CC2)ccc1-c1cc(-c2cc3c([nH]2)C2(CC2)CNC3=O)ccn1 (stereo not drawn)"
  Result: "> 100 nM"
- Compound: "C[C@@H]1CNc2c(sc3ccc4nc(-c5cncc(N6CCN(CC7CCN(c8cccc9c8n(C)c(=O)n9C8CCC(=O)NC8=O)CC7)CC6)c5)ccc4c23)C(=O)N1 (stereo partly drawn)"
  Result: "< 1 nM"
- Compound: "C[C@@H]1CN(C)c2c(sc3ccc4nc(-c5cccc(N6CCC(CN7CCN(c8cccc9c(N%10CCC(=O)NC%10=O)cncc89)CC7)CC6)c5)ccc4c23)C(=O)N1"
  Result: "> 100 nM"
